Tested on: A549
PROTOCOL: Antiproliferative activity against human A549 cells assessed as inhibition of cell viability at 20 uM after 72 hrs by CCK-8 assay relative to control
Assay type: functional

{"MOLECULE": "CCOc1ccc(C2Oc3ccccc3-c3ccccc32)cc1 (stereo not given)", "UNIT ABBREVIATION": "%", "inhibition at 20 µM": 34.9}
{"MOLECULE": "COc1ccc(C2Oc3ccccc3-c3ccccc32)cc1 (stereo not given)", "UNIT ABBREVIATION": "%", "inhibition at 20 µM": 29.9}
{"MOLECULE": "COc1ccc2c(c1)-c1ccccc1OC2c1ccccc1C (stereo not given)", "UNIT ABBREVIATION": "%", "inhibition at 20 µM": 60.9}
{"MOLECULE": "COc1cccc(C2Oc3ccccc3-c3cc(OC)ccc32)c1 (stereo not given)", "UNIT ABBREVIATION": "%", "inhibition at 20 µM": 56.3}
{"MOLECULE": "c1ccc2c(c1)OC(c1cccc3ccccc13)c1ccccc1-2 (stereo not given)", "UNIT ABBREVIATION": "%", "inhibition at 20 µM": 31.5}
{"MOLECULE": "COc1ccc(C2Oc3ccc(C)cc3-c3ccccc32)cc1 (stereo not given)", "UNIT ABBREVIATION": "%", "inhibition at 20 µM": 29.4}
{"MOLECULE": "COc1ccc2c(c1)-c1ccccc1OC2c1ccc(O[Si](C)(C)C(C)(C)C)cc1 (stereo not given)", "UNIT ABBREVIATION": "%", "inhibition at 20 µM": 31.2}
{"MOLECULE": "COc1ccc2c(c1)-c1ccccc1OC2c1ccc(Cl)cc1 (stereo not given)", "UNIT ABBREVIATION": "%", "inhibition at 20 µM": 36}
{"MOLECULE": "COc1ccc2c(c1)-c1ccccc1OC2c1cccs1 (stereo not given)", "UNIT ABBREVIATION": "%", "inhibition at 20 µM": 43.9}
{"MOLECULE": "c1ccc(C2Oc3ccccc3-c3ccccc32)cc1 (stereo not given)", "UNIT ABBREVIATION": "%", "inhibition at 20 µM": 23.8}

====

Test system: A549
PROTOCOL: Antiproliferative activity against human A549 cells assessed as inhibition of cell viability at 20 uM after 72 hrs by CCK-8 assay relative to control
Format: functional

{"MOLECULE": "COc1ccc2c(c1)-c1ccccc1OC2c1ccc(SC)cc1 (configuration not stated)", "inhibition at 20 µM": "31.8%"}
{"MOLECULE": "COc1ccc(C2Oc3ccccc3-c3ccc(OC)cc32)cc1 (configuration not stated)", "inhibition at 20 µM": "43.6%"}
{"MOLECULE": "COc1ccc(C2Oc3ccc(OC)cc3-c3ccccc32)cc1 (configuration not stated)", "inhibition at 20 µM": "36.2%"}
{"MOLECULE": "CCOc1ccc(C2Oc3ccccc3-c3cc(OC)ccc32)cc1 (configuration not stated)", "inhibition at 20 µM": "40.5%"}
{"MOLECULE": "Cc1ccc(C2Oc3ccccc3-c3ccccc32)cc1 (configuration not stated)", "inhibition at 20 µM": "23.5%"}
{"MOLECULE": "COc1ccc(C2Oc3cc(C)ccc3-c3ccccc32)cc1 (configuration not stated)", "inhibition at 20 µM": "22.6%"}
{"MOLECULE": "COc1ccc2c(c1)-c1ccccc1OC2c1ccc(Br)cc1 (configuration not stated)", "inhibition at 20 µM": "38.8%"}
{"MOLECULE": "COc1ccc2c(c1)-c1ccccc1OC2c1cccc(C)c1 (configuration not stated)", "inhibition at 20 µM": "34.4%"}
{"MOLECULE": "COc1ccc(C2Oc3ccc(Br)cc3-c3ccccc32)cc1 (configuration not stated)", "inhibition at 20 µM": "28.9%"}
{"MOLECULE": "COc1ccc(C2Oc3ccccc3-c3cc(OC)ccc32)cc1 (configuration not stated)", "inhibition at 20 µM": "49.6%"}
{"MOLECULE": "COc1ccc2c(c1)-c1ccccc1OC2c1ccccc1 (configuration not stated)", "inhibition at 20 µM": "32%"}
{"MOLECULE": "COc1ccc2c(c1)-c1ccccc1OC2c1ccc(C)cc1 (configuration not stated)", "inhibition at 20 µM": "31.1%"}
